assayed.target: T1, murine EphB4 ectodomain (murine, UniProt P54761 16-539)
T1 construct: extracellular domain; Coated on wells; also called immobilized EphB4 receptor ectodomain
T1 sequence (looked up): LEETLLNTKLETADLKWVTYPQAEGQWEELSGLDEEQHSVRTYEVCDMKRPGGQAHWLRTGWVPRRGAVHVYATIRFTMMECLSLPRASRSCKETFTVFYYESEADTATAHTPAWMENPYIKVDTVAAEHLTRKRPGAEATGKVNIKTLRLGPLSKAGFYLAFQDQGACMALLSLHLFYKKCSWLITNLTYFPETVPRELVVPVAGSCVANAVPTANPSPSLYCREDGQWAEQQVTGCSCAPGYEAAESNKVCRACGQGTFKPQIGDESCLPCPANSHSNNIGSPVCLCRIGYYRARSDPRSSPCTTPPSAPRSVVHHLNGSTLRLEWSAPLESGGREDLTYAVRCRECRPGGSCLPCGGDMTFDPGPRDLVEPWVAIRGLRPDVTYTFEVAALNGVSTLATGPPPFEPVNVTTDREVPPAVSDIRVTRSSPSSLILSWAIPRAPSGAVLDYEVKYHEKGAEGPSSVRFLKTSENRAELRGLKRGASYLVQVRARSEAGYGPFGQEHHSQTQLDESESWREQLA
protocol.text: inhibition of murine ephrin-B2 AP binding to immobilised murine EphB4 ectodomain
measured.attribute: IC50

Known IC50 results, listed for orientation:
LFSPNGPIARAW [L-RAW peptide LFSPNGPIARAW (SEQ ID NO:42)] :: > 10000 nM
TNYLFSPNGPIARAW (Synthetic, not biotinylated) [TNYL-RAW peptide TNYLFSPNGPIARAW (SEQ ID NO:39)] :: ~40 nM
YLFSPNGPIARAW [YL-RAW peptide YLFSPNGPIARAW (SEQ ID NO:41)] :: ~40 nM

Now for another entry.
Could you tell me which IC50 is on file for NYLFSPNGPIARAW [NYL-RAW peptide NYLFSPNGPIARAW (SEQ ID NO:40)] ?
~40 nM

Numbers sourced from patent US20100150834A1.
